- SUBJECT_OF_TEST: androgen receptor (Rattus norvegicus (Rat))
- Sequence (P15207 651-902): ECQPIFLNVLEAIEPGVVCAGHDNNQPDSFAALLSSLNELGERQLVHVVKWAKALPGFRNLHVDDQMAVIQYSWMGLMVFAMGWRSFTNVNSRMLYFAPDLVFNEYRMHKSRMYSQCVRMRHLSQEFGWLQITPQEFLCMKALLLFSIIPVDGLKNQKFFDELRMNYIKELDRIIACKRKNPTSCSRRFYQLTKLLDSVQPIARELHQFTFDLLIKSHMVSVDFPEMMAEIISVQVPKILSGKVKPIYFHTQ
- EXPERIMENT_NOTES: androgen receptor binding assay (fluorescence polarization, Invitrogen)
- EXPERIMENTAL_PARAMETERS: AR-Fluormone complex, 4 h at room temperature; Table 2
# reported IC50; entries follow

• C[C@H]1OC(=O)N(c2ccc(C#N)c(Cl)c2)[C@H]1[C@H](O)C(F)(F)F = 150 nM
• N#Cc1ccc(N2C(=O)CC[C@@H]2[C@@H](O)C(F)(F)F)cc1Cl = 65 nM
• Cc1c(N2C(=O)CC[C@@H]2[C@@H](O)C(F)(F)F)ccc(C#N)c1Cl = 491 nM
• Cc1c(N2C(=O)O[C@H](C)[C@@H]2[C@@H](O)C(F)(F)F)ccc(C#N)c1C(F)(F)F = > 10000 nM
• O=C1CC[C@H]([C@H](O)C(F)(F)F)N1c1ccc(Cl)c(Cl)c1 = 62 nM
• C[C@H]1OC(=O)N(c2ccc(C#N)c(Cl)c2)[C@H]1[C@@H](O)C(F)(F)F = 550 nM
• N#Cc1ccc(N2C(=O)CC[C@@H]2C(O)C(F)(F)F)cc1Cl (stereo partly shown) = 46 nM
• C[C@H]1OC(=O)N(c2ccc(C#N)c(C(F)(F)F)c2)[C@H]1[C@@H](O)C(F)(F)F = > 1000 nM

**Q:** Look up and report measured IC50 (androgen receptor (Rattus norvegicus (Rat))) for the following compound: `Cc1c(N2C(=O)CC[C@@H]2[C@H](O)C(F)(F)F)ccc(C#N)c1Cl`
**A:** 25 nM

**Q:** Check androgen receptor (Rattus norvegicus (Rat)) data and give IC50 for `Cc1c(N2C(=O)O[C@H](C)[C@@H]2[C@H](O)C(F)(F)F)ccc(C#N)c1C(F)(F)F` .
**A:** > 1000 nM
